Reference source: paper PMC7413254

Known inhibition at 1000 µM of a selection of compounds
Biological target: PfCRT^Dd2 (Plasmodium falciparum, UniProt Q9N623, A220S/I356T/K76T/M74I/N326S/N75E/Q271E/R371I)
Sequence (Q9N623 whole entry A220S/I356T/K76T/M74I/N326S/N75E/Q271E/R371I): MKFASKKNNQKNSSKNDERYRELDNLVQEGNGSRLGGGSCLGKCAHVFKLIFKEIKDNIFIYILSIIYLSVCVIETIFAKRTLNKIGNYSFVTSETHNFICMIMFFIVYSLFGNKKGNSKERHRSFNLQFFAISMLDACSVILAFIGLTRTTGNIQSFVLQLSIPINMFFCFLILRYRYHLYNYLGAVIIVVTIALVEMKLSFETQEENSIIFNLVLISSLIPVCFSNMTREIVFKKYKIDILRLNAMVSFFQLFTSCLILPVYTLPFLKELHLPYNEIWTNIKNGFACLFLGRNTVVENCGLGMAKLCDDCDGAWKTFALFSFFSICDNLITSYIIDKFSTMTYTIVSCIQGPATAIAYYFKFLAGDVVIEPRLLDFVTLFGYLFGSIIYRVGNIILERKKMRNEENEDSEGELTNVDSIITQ
Assay: [3H]CQ uptake into Xenopus oocytes, cis-inhibition by unlabelled solute
Assay type: cell-based
Settings: read-out: Uptake of [3H]CQ (% PfCRTDd2 control), cis-inhibition
Expressed in %, but write only the number.

Worked cases, inhibition at 1000 µM given:
Look up and report measured inhibition at 1000 µM for this entry: CC(C)C[C@H](N)C(=O)O [L-leucine]
98

Look up and report measured inhibition at 1000 µM for this entry: CC(C)[C@H](N)C(=O)O [L-valine]
100

Look up and report measured inhibition at 1000 µM for this entry: N=C(N)NCCC[C@H](N)C(=O)O [L-arginine]
101

Look up and report measured inhibition at 1000 µM for this entry: N[C@@H](Cc1c[nH]c2ccccc12)C(=O)O [L-tryptophan]
97

Look up and report measured inhibition at 1000 µM for this entry: N[C@@H](CCC(=O)O)C(=O)O [L-glutamic acid]
96

Switching to the query record.
Look up and report measured inhibition at 1000 µM for this entry: NC(=O)CC[C@H](N)C(=O)O [L-glutamine]
100

---

Molecular target: PfCRT^Dd2 (Plasmodium falciparum, UniProt Q9N623, A220S/I356T/K76T/M74I/N326S/N75E/Q271E/R371I)
Test: cell-based
Format: cell-based
Details: [test solute]i = 5 mM (intracellular); PfCRTDd2 oocytes; normalised to oocyte type control
attributeMeasured: PfCRT-mediated [3H]CQ transport, trans-stimulation (% PfCRTDd2 control)
Expressed in % PfCRTDd2 control, but write only the number.

Look up and report measured PfCRT-mediated [3H]CQ transport, trans-stimulation (% PfCRTDd2 control) for this entry: VDPVNFK [VK-7]
100

Switching to the query record.
Look up and report measured PfCRT-mediated [3H]CQ transport, trans-stimulation (% PfCRTDd2 control) for this entry: HVDPENF [HF-7]
100

---

Known inhibition at 1000 µM of a selection of compounds
Target: PfCRT^Dd2 (Plasmodium falciparum, UniProt Q9N623, A220S/I356T/K76T/M74I/N326S/N75E/Q271E/R371I)
Experiment: [3H]CQ uptake into Xenopus oocytes, cis-inhibition by unlabelled solute
Type: cell-based
Conditions: read-out: PfCRT-mediated [3H]CQ transport, cis-inhibition (% PfCRTDd2 control)
Experimental: The orientation of PfCRT in the parasite’s DV membrane, and also in the oocyte plasma membrane, is such that its N- and C-termini extend into the cytosol. The oocytes were suspended in a reaction buffer adjusted to pH 5.5 to mimic the pH of the DV lumen[1],[2]. […] Unless specified otherwise, this is the direction in which substrate transport was measured in the oocyte assays. […]
Expressed in %, but write only the number.

Worked cases, inhibition at 1000 µM given:
Look up and report measured inhibition at 1000 µM for this entry: `CC(C)C[C@H](N)C(=O)O`
96

Look up and report measured inhibition at 1000 µM for this entry: `N[C@@H](Cc1c[nH]c2ccccc12)C(=O)O`
95

Look up and report measured inhibition at 1000 µM for this entry: `N[C@@H](Cc1ccccc1)C(=O)O`
95

Others:
Look up and report measured inhibition at 1000 µM for this entry: `N=C(N)NCCC[C@H](N)C(=O)O`
99

Look up and report measured inhibition at 1000 µM for this entry: `N[C@@H](Cc1c[nH]cn1)C(=O)O`
97

Look up and report measured inhibition at 1000 µM for this entry: `C[C@H](N)C(=O)O`
94
